# System: 883617-216-R-J1-PDC tumor spheroids, viability;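 further: spheroids exposed to agents for 7 days before the viability read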
# ASSAY_SUMMARY: Anticancer human tumor 883617-216-R-J1-PDC patient-derived bladder carcinoma cell line growth inhibition [PI3K]; active means viability on the fitted dose curve at most 10% of control; inactive means the rest
# CONDITION_INFO: compound 0.316 µM; spheroids with HUVEC and MSC
Please reply with one of these outcomes: active, inactive

I would be grateful if you could indicate the recorded call for Cn1nccc1Nc1nccc(-c2ccn(C(CO)c3ccc(Cl)c(F)c3)c(=O)c2)n1 (centres undefined) . inactive

Repeat with CC(Nc1ccc2c(c1)OCCn1cc(N3C(=O)OCC3C(F)F)nc1-2)C(N)=O (centres undefined) inactive

Repeat with CCN1CCN(Cc2ccc(Nc3ncc(F)c(-c4cc(F)c5nc(C)n(C(C)C)c5c4)n3)nc2)CC1 inactive

Repeat with Cn1ncc(Cl)c1-c1cc(C(=O)NC(CN)Cc2cccc(F)c2)sc1Cl (centres undefined) inactive

Repeat with COc1c(OCCCN2CCOCC2)ccc2c3n(c(=NC(=O)c4cnc(N)nc4)nc12)CCN3 active

Repeat with C=CC(=O)N1CCN(c2nc(=O)n(-c3c(C)ccnc3C(C)C)c3nc(-c4c(O)cccc4F)c(F)cc23)C(C)C1 (centres undefined) inactive

Repeat with CC(Cn1ccc(-c2ccc(C#N)c(Cl)c2)n1)NC(=O)c1cc(C(C)O)[nH]n1 (centres undefined) inactive

Repeat with Cc1nc(NC(=O)N2CCCC2C(N)=O)sc1-c1ccnc(C(C)(C)C(F)(F)F)c1 (centres undefined) inactive

Repeat with CC(Nc1ncnc2nc[nH]c12)c1cc2cccc(Cl)c2c(=O)n1-c1ccccc1 (centres undefined) inactive
